Measurement Description: compound binding in COS7 lysate, probe aLAP1, primary screen, cell lysate, small-molecule microarray (AID 1124);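 further: lysate comes from COS7 cells expressing LAP1 and is applied at 0.3 µg/mL; score merges spot fluorescence near 667 nm with signal-to-noise over triplicate slides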
Condition Description: probe aLAP1, fluorescence, higher = more signal
Metric: composite z-score
The answer should be a number; do not append a unit.

Compound	Reading
C=CCOC(=O)[C@H]1[C@@H]2C(=O)O[C@@H](c3ccccc3)[C@@H](c3ccccc3)N2[C@@H](c2ccc(OCCOC(=O)[C@@H]3C[C@@H]4C(=O)N5CCC[C@H]5C(=O)N4[C@@H]3c3cccc(OCCO)c3)cc2)[C@]12C(=O)Nc1ccccc12	0.383
O=C(O)[C@@]1(CCS(=O)(=O)c2ccccc2)COC(c2ccc(OCCCO)cc2)=N1	0.0237
COc1ccc(C(O)C2C=CC3C(=O)N(c4ccccc4)C(=O)C3N2Nc2ccccc2F)cc1OCc1ccccc1 (stereo unspecified)	-0.0892

Q: Param item = COC(=O)[C@@]1(Cc2ccc(F)cc2)[C@H]2c3cc(C(=O)N(C)C)n(CC4CC4)c3C[C@H]2CN1C(=O)c1ccccc1 ; retrieve measured composite z-score.
Result: 0.698

Q: Param item = COCCOC(=O)N1C(=O)[C@@]2(c3cc(C#CCNC(N)=O)ccc31)[C@H](C(=O)NC[C@H](O)c1ccccc1)[C@H]1C(=O)O[C@H](c3ccccc3)[C@H](c3ccccc3)N1[C@@H]2c1ccccc1OCCO ; retrieve measured composite z-score.
Result: 0.854

Q: Param item = CCOC(=O)C=Cc1cc([N+](=O)[O-])ccc1O ; retrieve measured composite z-score.
Result: 0.422

* * *

Listing: composite z-score of selected compounds
Assayed System: Torsin-1A-interacting protein 1 (Homo sapiens) (UniProt Q5JTV8)
Sequence (Q5JTV8 whole entry, looked up): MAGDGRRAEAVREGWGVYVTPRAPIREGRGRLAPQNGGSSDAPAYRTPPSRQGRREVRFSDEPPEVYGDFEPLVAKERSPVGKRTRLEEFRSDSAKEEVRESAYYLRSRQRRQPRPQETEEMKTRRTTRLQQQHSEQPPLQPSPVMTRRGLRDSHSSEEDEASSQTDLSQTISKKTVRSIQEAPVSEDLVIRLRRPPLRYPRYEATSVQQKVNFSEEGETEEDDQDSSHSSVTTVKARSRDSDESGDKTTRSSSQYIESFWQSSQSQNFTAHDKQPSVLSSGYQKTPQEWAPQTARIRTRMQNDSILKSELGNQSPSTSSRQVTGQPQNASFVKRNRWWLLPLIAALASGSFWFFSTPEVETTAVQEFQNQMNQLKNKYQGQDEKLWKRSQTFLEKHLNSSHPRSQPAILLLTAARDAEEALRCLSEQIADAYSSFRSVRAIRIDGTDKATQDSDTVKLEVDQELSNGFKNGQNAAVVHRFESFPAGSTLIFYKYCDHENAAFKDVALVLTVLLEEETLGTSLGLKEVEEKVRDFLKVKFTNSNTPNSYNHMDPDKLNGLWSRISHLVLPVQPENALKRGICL
Measurement Description: LAP1 binders from COS7 cell lysate, primary screen, small-molecule microarray, 635/667 nm fluorescence (AID 1116)
Condition Description: COS7-hLAP1 lysate binding, 635 nm fluorescence, higher = more signal
The answer should be a number; do not append a unit.

Field: example entries. Status: answers known.
                                   compound  reading
0  C#CCN(CC1=CCCCC1)[C@H](c1ccccc1Br)[C@@H](O)Cc1ccccc1    0.632
1  COCC(=C=CC[C@H](O)c1ccccc1OCCO)C[C@H](O)c1cc(Cl)cc(Cl)c1O    0.743
2  CCCCCN1CC=CC23O[C@@H]4/C=C\CCCOC(=O)C4[C@H]2C(=O)N(CCCO)[C@@H]3C1=O (some centres undefined)     2.88
3  CN(C)CCCNC(=O)[C@@]1(c2ccc([N+](=O)[O-])cc2)CC(=O)N(C2CCCCC2)[C@@H]1c1ccc(CO)cc1    0.218
4  CN(C)C(=O)[C@]1(Cc2ccccc2CN=[N+]=[N-])N=C(c2ccc(OCCCO)cc2)O[C@@H]1c1ccccc1CN=[N+]=[N-]     1.39

Q: Param item = C#CCN(Cc1ccccc1Br)C(/C=C/c1ccccc1)CO (centres undefined) ; retrieve measured composite z-score.
Result: 0.104

Q: Param item = CCOC(=O)[C@H]1CC=C2CC1C(=O)N1CCC[C@@H]1[C@@H]2O[Si](C)(C)C(C)(C)C (some centres undefined) ; retrieve measured composite z-score.
Result: -0.523

Q: Param item = O=C1NC(=O)C2C1C=CC(C(O)c1ccccc1)N2Nc1ccc(Cl)cc1Cl (centres undefined) ; retrieve measured composite z-score.
Result: 1.98

Q: Param item = O=C1[C@H]2C=C(Br)[C@H](C[C@@H]2OCCCCO)[C@@]12CO2 ; retrieve measured composite z-score.
Result: -0.272
